Listing: pre-steady-state target cleavage rate of selected sequences
Test system: MILI (PIWIL2) piRISC loaded with L1MC piRNA (26 nt);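 also: 1 nM active piRISC with 0.1 nM target library at 33 °C single turnover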
Assay overview: pre-steady-state target cleavage rate (min^-1); guide: L1MC piRNA 5'p-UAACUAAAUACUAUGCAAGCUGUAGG; MIWI and MILI are mouse PIWI proteins and EfPiwi is from a freshwater sponge; tags in brackets are library labels; higher = faster piRNA-guided slicing of the target
Condition description: auxiliary factor: none (no GTSF1)
Measurement type: pre-steady-state target cleavage rate

[[record]]
polymer_sequence = "UCCUGGAUGUCGAACCAAAGUAUUUAGAUA"
operator_symbol = "<"
result = 0.0001

[[record]]
polymer_sequence = "UCCUGGUACAGCUUGCUUAGUAUUUAGUUA"
operator_symbol = "="
result = 0.00964

[[record]]
polymer_sequence = "UCCUGGAACAGCUUGGAAAGUAUUUAGUUA"
operator_symbol = "="
result = 0.00969

[[record]]
polymer_sequence = "UCCUCCUACAGCUUAGCAUAGUAUUUAGUUA"
operator_symbol = "="
result = 0.0112

[[record]]
polymer_sequence = "UCCUGGAUGUCGUUGCAUAGUUUUAAGUUA"
operator_symbol = "="
result = 0.0042

[[record]]
polymer_sequence = "UCCUGGAUGUCGAACGAAAGUAUAUAGUUA"
operator_symbol = "<"
result = 0.0001

[[record]]
polymer_sequence = "UCCUGGUACAGCAAGCAUAGUAUUUAGUUA"
operator_symbol = "="
result = 0.00852

